- target.or.test.system: T1, EN2 (Engrailed-2) (UniProt P19622 P19622:1-333)
- T1 sequence: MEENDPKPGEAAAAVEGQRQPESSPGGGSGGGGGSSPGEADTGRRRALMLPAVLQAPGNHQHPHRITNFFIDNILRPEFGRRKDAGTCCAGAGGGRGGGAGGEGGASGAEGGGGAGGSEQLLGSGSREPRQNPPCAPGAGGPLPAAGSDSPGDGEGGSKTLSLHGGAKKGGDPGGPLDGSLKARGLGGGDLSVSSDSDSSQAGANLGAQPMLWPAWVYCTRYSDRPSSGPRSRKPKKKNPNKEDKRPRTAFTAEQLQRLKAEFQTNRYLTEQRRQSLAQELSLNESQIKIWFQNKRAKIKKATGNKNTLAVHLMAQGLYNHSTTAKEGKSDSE
- measurement.description: FAM fluorescence of protein-bound aptamer
- run.conditions: tags: (His)6-tag, pET28a, E. coli BL21(DE3); label: FAM; hairpin, loop 6 bases, stem 14 bp
reported.endpoint: Kd (nM)
Give bare numbers, in nM.

Query block: Consider the binder CGTGTAATTACCTCCAGGGAGAGGTAATTACACG (structured_DNA) [hpDNA2] and give its measured Kd.
Result block: 98.8
